- system-tested: Cysteinyl leukotriene receptor 1 (Cavia porcellus, UniProt Q2NNR5)
- Sequence (Q2NNR5 whole entry): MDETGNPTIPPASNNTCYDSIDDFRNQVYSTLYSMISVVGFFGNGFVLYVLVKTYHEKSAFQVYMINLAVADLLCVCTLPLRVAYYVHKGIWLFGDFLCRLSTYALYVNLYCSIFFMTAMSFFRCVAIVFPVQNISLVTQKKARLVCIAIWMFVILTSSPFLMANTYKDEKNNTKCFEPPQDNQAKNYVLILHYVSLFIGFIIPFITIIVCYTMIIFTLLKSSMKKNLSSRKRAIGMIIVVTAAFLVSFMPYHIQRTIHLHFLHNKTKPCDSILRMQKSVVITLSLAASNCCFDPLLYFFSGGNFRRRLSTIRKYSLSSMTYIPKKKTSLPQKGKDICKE
- test: Binding affinity against LTD4 receptor in guinea pig lung membranes.
- Assay type: cell membranes
pKi: −log10 of the molar value.
pKi values, listed per item
attribute-measured: pKi

{"compound": "O=C1CC(c2nnn[nH]2)Oc2cc(CCc3cccc(OCc4ccc5ccccc5n4)c3)ccc21 (centres undefined)", "value": 9.52}
{"compound": "O=C(Nc1cccc2c1OC(c1nnn[nH]1)CC2=O)c1ccc(OCc2ccc3ccccc3n2)cc1 (centres undefined)", "value": 8.96}
{"compound": "O=C1CC(c2nnn[nH]2)Oc2cc(/C=C/c3cccc(OCc4ccc5ccccc5n4)c3)ccc21 (centres undefined)", "value": 8.60}
{"compound": "O=C1CC(c2nnn[nH]2)Oc2cc(OCc3cccc(OCc4ccc5ccccc5n4)c3)ccc21 (centres undefined)", "value": 10.00}

All figures here come from ChEMBL document CHEMBL1125699.
